Origin of values: patent EP3064205A1

Tested on: patient-derived tumor xenograft (PDX) tumor panel
Assay: 3D clonogenic assay, whole panel
Type: cell-based, human
Conditions: Homo sapiens, geometric mean over Table 2; read-out: Mean IC50 (qeometr.) rel. IC50
assay.readout: IC50 (µM)
Unit µM implied. Number only.

Task: Report IC50 from patient-derived tumor xenograft (PDX) tumor panel testing of O[C@H](c1cc(-c2ccc(Cl)cc2)nc2ccccc12)[C@@H]1CCCCN1 [S1]
Output: 8.7

====

System: CXF 676
Test: 3D clonogenic assay (PDX)
Type: cell-based, human
Conditions: Homo sapiens; CXF 676, Colorectal; read-out: abs. IC50
assay.readout: IC50 (µM)
Your answer is read as µM, so omit the unit and give the number.

Task: Tell us which IC50 value is on record for O[C@H](c1cc(-c2ccc(Cl)cc2)nc2ccccc12)[C@@H]1CCCCN1 [S1]
Output: 8.92
